Target: human FAAH 1 (Homo sapiens (Human))
Sequence (O00519 whole entry): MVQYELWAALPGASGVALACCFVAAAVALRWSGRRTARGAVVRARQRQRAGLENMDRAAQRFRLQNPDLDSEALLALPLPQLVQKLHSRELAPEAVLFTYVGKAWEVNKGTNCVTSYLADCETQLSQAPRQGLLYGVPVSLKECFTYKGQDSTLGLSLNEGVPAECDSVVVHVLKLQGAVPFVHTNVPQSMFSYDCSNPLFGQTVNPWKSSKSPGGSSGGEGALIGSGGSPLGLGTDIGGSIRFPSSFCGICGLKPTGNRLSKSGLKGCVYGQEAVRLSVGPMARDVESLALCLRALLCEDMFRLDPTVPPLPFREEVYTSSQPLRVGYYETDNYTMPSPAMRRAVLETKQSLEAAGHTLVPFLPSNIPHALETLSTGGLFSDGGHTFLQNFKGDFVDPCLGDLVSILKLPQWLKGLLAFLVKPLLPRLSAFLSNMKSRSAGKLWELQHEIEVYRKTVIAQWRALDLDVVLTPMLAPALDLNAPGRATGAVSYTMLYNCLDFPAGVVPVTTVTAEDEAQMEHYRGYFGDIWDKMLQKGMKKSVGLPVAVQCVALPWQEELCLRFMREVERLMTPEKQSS
Test: Human FAAH 1 assay (AAMCA fluorescence)
Assay type: biochemical
Details: 1 hour pre-incubation with compound, 10 nM FAAH; read-out: FAAH Human IC50 (nM) 60 minutes (n = 2)
observable: IC50
Note: state the figure and append the unit.

Consider the following illustrative entries.
molecular-string	IC50
O=C(Nc1cccnn1)N1CC(Oc2ccc(-c3ccccc3)cn2)C1	38 nM
COCCOc1ccc(Cl)c(-c2ccc(OC3CN(C(=O)Nc4cccnn4)C3)nc2)c1	7 nM
COCCOc1cccc(-c2ccc(OC3CN(C(=O)Nc4cnccn4)C3)nc2)c1	73 nM
COc1ccc(OC)c(-c2ccc(OC3CN(C(=O)Nc4cccnn4)C3)nc2)c1	12 nM

Consider the record given below.
Reported IC50 ( `O=C(Nc1cccnn1)N1CC(Oc2ccc(-c3c(F)cccc3F)cn2)C1` ) = 14 nM

Origin of the recorded values: patent US9006269B2
